Target: TRKA (Homo sapiens, UniProt P04629)
Sequence (P04629 33-796): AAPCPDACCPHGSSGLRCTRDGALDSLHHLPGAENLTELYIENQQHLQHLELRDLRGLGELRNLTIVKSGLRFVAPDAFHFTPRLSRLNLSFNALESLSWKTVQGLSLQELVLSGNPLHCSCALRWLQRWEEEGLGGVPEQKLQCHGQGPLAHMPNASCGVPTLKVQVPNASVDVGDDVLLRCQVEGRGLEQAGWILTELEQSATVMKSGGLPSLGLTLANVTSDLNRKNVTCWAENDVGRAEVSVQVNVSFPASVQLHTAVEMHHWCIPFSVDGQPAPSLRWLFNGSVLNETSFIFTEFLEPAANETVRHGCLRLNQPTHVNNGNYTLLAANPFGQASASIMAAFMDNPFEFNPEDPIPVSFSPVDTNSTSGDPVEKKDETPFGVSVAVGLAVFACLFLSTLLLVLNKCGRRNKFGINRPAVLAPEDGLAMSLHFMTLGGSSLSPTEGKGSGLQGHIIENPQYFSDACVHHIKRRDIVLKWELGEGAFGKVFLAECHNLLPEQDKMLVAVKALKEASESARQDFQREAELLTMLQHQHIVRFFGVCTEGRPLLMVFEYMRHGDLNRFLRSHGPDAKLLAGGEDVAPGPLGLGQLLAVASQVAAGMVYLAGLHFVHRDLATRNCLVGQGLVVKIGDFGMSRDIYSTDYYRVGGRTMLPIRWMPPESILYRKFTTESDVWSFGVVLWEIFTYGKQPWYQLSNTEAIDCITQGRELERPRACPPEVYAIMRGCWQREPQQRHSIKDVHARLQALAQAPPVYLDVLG
MEASURED QUANTITY: pIC50
Bear in mind: pIC50 is minus log10 of a mol/L concentration; give just that figure.

Q. Reported pIC50 for TRKA (Homo sapiens, UniProt P04629), given "Cc1c(C#Cc2cnc3ccc(N4CCC(O)CC4)nn23)cccc1C(=O)Nc1cc(Cl)cc(C(F)(F)F)c1" ?
A. 8.36

----------
Target: DDR1 (Homo sapiens)
Sequence (Q08345 19-913): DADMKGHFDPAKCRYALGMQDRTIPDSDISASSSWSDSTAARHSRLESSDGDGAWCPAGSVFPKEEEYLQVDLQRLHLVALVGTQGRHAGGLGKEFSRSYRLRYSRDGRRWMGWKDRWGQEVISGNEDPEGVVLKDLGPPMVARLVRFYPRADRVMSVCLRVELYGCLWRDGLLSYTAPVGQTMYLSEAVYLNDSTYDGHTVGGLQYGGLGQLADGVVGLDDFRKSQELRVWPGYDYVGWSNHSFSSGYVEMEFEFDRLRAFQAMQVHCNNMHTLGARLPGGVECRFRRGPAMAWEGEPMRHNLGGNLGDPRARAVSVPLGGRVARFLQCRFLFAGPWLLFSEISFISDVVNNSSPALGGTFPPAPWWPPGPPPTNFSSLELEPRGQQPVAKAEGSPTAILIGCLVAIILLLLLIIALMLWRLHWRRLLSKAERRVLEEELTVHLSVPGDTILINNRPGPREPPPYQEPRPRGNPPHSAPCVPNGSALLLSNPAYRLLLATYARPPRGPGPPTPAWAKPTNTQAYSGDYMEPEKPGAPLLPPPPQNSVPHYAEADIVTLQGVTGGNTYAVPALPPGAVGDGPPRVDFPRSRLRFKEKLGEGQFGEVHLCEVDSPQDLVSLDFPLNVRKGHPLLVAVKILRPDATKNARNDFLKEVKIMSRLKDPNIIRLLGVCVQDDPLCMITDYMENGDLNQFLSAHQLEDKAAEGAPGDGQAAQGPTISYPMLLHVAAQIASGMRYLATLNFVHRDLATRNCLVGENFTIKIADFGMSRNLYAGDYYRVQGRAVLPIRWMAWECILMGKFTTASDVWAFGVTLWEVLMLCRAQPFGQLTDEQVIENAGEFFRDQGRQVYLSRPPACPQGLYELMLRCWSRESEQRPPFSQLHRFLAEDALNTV
MEASURED QUANTITY: pIC50
Bear in mind: pIC50 is minus log10 of a mol/L concentration; give just that figure.

Q. Reported pIC50 for DDR1 (Homo sapiens), given "Cc1c(C#Cc2cnc3ccc(N4CCC(O)CC4)nn23)cccc1C(=O)Nc1cc(Cl)cc(C(F)(F)F)c1" ?
A. 9.12

Where do the numbers come from? From patent US20260216183A1.
